tested on: SNB-75 CNS; test: NCI-60 one-dose screen, 48 h (100 = growth as untreated, 0 = no growth, -100 = all killed); conditions: 10 µM
This is part of a sample that, as a whole, favours compounds with a hit. Of some 83,000 tested, about 20% had one in any assay.
Listing of entries alongside the reported growth.

COMPOUND	STUDY TARGET	growth / %
Cc1cnc(/C=N\NC(N)=S)c2cccc(N)c12	SNB-75 CNS	-2.85
CN(C)CCC(=O)c1c[nH]c2ccccc12	SNB-75 CNS	99.8
COc1cc(C(C)(C)C)cc(OC)c1C(O)(c1c(OC)cc(C(C)(C)C)cc1OC)c1c(OC)cc(C(C)(C)C)cc1OC	SNB-75 CNS	-94.1
CN1CCN(c2ccc3nc(-c4ccc5nc(-c6ccc(O)cc6)[nH]c5c4)[nH]c3c2)CC1	SNB-75 CNS	54.9
N#C/C(=C1C=C/C(=N\O)C(Cl)=C\1)c1ccccc1	SNB-75 CNS	59.4
Nc1ccc2cc(Br)c3ccccc3c2c1	SNB-75 CNS	50

Values from PubChem BioAssay (NCI)
